These entries and their values trace back to ChEMBL document CHEMBL5291721.

Target: Progesterone receptor (Homo sapiens, UniProt P06401); also: assay procedure not described here
Sequence (P06401 whole entry): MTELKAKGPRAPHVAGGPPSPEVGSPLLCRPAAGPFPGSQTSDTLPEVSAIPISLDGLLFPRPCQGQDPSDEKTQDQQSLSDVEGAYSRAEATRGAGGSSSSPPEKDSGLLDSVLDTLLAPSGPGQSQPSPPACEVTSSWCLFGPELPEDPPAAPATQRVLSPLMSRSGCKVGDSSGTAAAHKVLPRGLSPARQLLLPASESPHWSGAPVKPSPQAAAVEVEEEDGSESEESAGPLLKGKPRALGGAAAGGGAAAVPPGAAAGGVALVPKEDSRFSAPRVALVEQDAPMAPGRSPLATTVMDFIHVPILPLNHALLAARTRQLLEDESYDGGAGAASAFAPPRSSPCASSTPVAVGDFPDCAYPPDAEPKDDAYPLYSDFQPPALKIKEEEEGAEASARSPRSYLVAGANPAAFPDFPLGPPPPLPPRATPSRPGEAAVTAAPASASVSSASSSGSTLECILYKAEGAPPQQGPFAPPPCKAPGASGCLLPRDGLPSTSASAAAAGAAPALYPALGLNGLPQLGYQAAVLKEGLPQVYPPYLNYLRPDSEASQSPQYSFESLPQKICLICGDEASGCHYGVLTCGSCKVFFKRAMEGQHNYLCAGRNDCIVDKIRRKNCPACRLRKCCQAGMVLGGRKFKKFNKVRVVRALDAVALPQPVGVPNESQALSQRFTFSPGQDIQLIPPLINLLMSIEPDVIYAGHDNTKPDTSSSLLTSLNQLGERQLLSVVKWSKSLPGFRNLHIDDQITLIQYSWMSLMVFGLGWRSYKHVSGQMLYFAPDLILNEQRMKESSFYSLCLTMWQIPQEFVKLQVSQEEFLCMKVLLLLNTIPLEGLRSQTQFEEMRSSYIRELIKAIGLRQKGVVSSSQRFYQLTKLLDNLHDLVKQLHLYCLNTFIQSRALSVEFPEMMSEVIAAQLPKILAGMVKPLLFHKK
Assay type: functional
Result Type: AC50

Recall and state the measured AC50 for CC[N+]1(C)CCCC(OC(=O)C(O)(c2ccccc2)c2ccccc2)C1 (centres undefined) [PIPENZOLATE] . > 30 µM

Recall and state the measured AC50 for C[C@@H]1CCC[C@H](C)N1NC(=O)c1ccc(Cl)c(S(N)(=O)=O)c1 [CLOPAMIDE] . > 30 µM

Recall and state the measured AC50 for `C=C(C)[C@@H]1CCC(C)=C[C@H]1c1c(O)cc(CCCCC)cc1O` . > 10 µM

Recall and state the measured AC50 for `[H]/N=C(/N)N[C@H]1[C@H](O)[C@@H](O)[C@H](O[C@@H]2O[C@@H](C)[C@](O)(C=O)[C@H]2O[C@@H]2O[C@@H](CO)[C@H](O)[C@@H](O)[C@@H]2NC)[C@@H](N/C(N)=N\[H])[C@@H]1O` . > 30 µM

Recall and state the measured AC50 for `CCN(CC)CCOC(=O)c1ccc(N)cc1Cl` . > 30 µM

Recall and state the measured AC50 for `COc1ccc(/C=C/C(=O)Nc2ccccc2C(=O)O)cc1OC` . > 30 µM

Recall and state the measured AC50 for NS(=O)(=O)c1cc(C2(O)NC(=O)c3ccccc32)ccc1Cl (centres undefined) . > 10 µM

Recall and state the measured AC50 for `CCCCC[C@H](O)/C=C/[C@H]1[C@H](O)CC(=O)[C@@H]1C/C=C\CCCC(=O)O` . 4.5 µM

Recall and state the measured AC50 for `CCSc1ccc2c(c1)N(CCCN1CCN(C)CC1)c1ccccc1S2` . > 30 µM

Recall and state the measured AC50 for `CN(c1nccc(=O)[nH]1)C1CCN(c2nc3ccccc3n2Cc2ccc(F)cc2)CC1` . > 30 µM

Recall and state the measured AC50 for `CCn1cc(C(=O)O)c(=O)c2cc(F)c(N3CCN(C)CC3)cc21` . > 30 µM

Recall and state the measured AC50 for `O=c1oc2ccccc2c(O)c1Cc1c(O)c2ccccc2oc1=O` . > 10 µM

Recall and state the measured AC50 for `CCCC[C@H](C)C[C@H](O)/C=C/[C@H]1[C@H](O)CC(=O)[C@@H]1CCCC/C=C/C(=O)O` . > 30 µM

Recall and state the measured AC50 for `CC(=O)O[C@H]1C[C@@H]2CC[C@@H]3[C@H](CC[C@@]4(C)[C@H]3C[C@H]([N+]3(C)CCCCC3)[C@@H]4OC(C)=O)[C@@]2(C)C[C@@H]1[N+]1(C)CCCCC1` . > 10 µM

Recall and state the measured AC50 for CCC(C)(Oc1ccc(C2(c3ccc(OC(C)(CC)C(=O)O)cc3)CCCCC2)cc1)C(=O)O (centres undefined) [CLINOFIBRATE] . > 30 µM

Recall and state the measured AC50 for `CCCN(CCC)CCc1cccc2c1CC(=O)N2` . > 30 µM

Recall and state the measured AC50 for CC(=O)Oc1ccccc1C(=O)Nc1ncc([N+](=O)[O-])s1 [NITAZOXANIDE] . > 30 µM

Recall and state the measured AC50 for `CCCN(CCc1cccs1)[C@H]1CCc2c(O)cccc2C1` . > 30 µM

Recall and state the measured AC50 for CC(NCCc1ccc(O)cc1)C(O)c1ccc(O)cc1 (centres undefined) . > 30 µM

* * *

Target or system Neuronal acetylcholine receptor subunit alpha-4 (Homo sapiens, UniProt P43681); recorded quantity AC50. Also: assay procedure not described here.

Recall and state the measured AC50 for O=C(O)CSCC(=O)NC1CCSC1=O (stereo not given) [ERDOSTEINE] . > 30 µM

Recall and state the measured AC50 for OCCN1CCN(CC/C=C2/c3ccccc3Sc3ccc(Cl)cc32)CC1 [ZUCLOPENTHIXOL] . > 10 µM

Recall and state the measured AC50 for CCN(CC)CC(=O)Oc1ccc(NC(C)=O)cc1 [PROPACETAMOL] . > 30 µM

Recall and state the measured AC50 for CN1[C@@H]2CC[C@H]1C[C@@H](OC(=O)c1c[nH]c3ccccc13)C2 [TROPISETRON] . 5.2 µM

Recall and state the measured AC50 for CC(=O)O[C@H]1C[C@@H]2CC[C@@H]3[C@H](CC[C@@]4(C)[C@H]3C[C@H]([N+]3(C)CCCCC3)[C@@H]4OC(C)=O)[C@@]2(C)C[C@@H]1[N+]1(C)CCCCC1 [PANCURONIUM] . > 10 µM

* * *

Target: Thromboxane A2 receptor (Homo sapiens, UniProt P21731); also: assay procedure not described here
Sequence (P21731 whole entry): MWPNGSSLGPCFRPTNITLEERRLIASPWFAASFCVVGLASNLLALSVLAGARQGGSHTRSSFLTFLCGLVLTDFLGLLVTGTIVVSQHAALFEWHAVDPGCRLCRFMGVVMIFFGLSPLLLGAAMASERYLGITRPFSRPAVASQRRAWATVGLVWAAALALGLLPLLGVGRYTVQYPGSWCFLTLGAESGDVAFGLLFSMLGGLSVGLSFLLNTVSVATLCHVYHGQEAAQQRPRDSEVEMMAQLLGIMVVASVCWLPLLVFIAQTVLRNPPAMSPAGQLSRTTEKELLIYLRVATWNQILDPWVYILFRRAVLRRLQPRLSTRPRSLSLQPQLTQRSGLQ
Assay type: functional
Result Type: AC50

Recall and state the measured AC50 for `CCCN(CCc1cccs1)[C@H]1CCc2c(O)cccc2C1` . > 30 µM

Recall and state the measured AC50 for `CCCN(CCC)CCc1cccc2c1CC(=O)N2` . > 30 µM

Recall and state the measured AC50 for `O=C1NC(=O)C(c2ccccc2)(c2ccccc2)N1` . > 30 µM

Recall and state the measured AC50 for `C[C@H]1Oc2cc(cnc2N)-c2c(nn(C)c2C#N)CN(C)C(=O)c2ccc(F)cc21` . > 30 µM

Recall and state the measured AC50 for `CC(=N)N1CC[C@H](SC2=C(C(=O)O)N3C(=O)[C@H]([C@@H](C)O)[C@H]3C2)C1` . > 300 µM

Recall and state the measured AC50 for `C#Cc1cccc(Nc2ncnc3cc(OCCOC)c(OCCOC)cc23)c1` . > 30 µM

* * *

Target: 5-hydroxytryptamine receptor 2B (Homo sapiens, UniProt P41595); also: assay procedure not described here
Sequence (P41595 whole entry): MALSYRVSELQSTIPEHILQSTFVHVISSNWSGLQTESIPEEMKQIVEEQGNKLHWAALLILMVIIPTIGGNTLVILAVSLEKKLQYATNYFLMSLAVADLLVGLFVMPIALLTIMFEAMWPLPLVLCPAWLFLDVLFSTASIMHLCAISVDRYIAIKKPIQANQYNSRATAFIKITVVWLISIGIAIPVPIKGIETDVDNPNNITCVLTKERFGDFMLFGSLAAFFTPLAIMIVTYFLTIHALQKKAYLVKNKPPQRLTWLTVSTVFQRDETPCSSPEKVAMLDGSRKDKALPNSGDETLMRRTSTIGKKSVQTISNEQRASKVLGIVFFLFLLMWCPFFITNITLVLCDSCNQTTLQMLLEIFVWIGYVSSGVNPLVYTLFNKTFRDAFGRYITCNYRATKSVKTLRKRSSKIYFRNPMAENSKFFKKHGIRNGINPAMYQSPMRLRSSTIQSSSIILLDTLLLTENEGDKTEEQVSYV
Format: functional, cell-based
Result Type: AC50

Recall and state the measured AC50 for `C#Cc1cccc(Nc2ncnc3cc(OCCOC)c(OCCOC)cc23)c1` . > 30 µM

Recall and state the measured AC50 for `N#C[C@@H]1CCCN1C(=O)CNC12CC3CC(CC(O)(C3)C1)C2` . > 30 µM

Recall and state the measured AC50 for `C[n+]1ccccc1/C=N/O` . > 30 µM

Recall and state the measured AC50 for `CN(c1nccc(=O)[nH]1)C1CCN(c2nc3ccccc3n2Cc2ccc(F)cc2)CC1` . 17 µM

Recall and state the measured AC50 for CCC(C)(Oc1ccc(C2(c3ccc(OC(C)(CC)C(=O)O)cc3)CCCCC2)cc1)C(=O)O (configuration not stated) [CLINOFIBRATE] . > 30 µM

Recall and state the measured AC50 for `COc1cc2c(Nc3ccc(Br)cc3F)ncnc2cc1OCC1CCN(C)CC1` . 14 µM

Recall and state the measured AC50 for C=CC(N)CCC(=O)O (configuration not stated) . > 10 µM

Recall and state the measured AC50 for `CC(=O)S[C@@H]1CC2=CC(=O)CC[C@]2(C)[C@H]2CC[C@@]3(C)[C@@H](CC[C@@]34CCC(=O)O4)[C@H]12` . 29 µM

Recall and state the measured AC50 for COc1c(O[C@@H]2O[C@H](CO)[C@@H](O)[C@H](O)[C@H]2O)cc2c(c1OC)-c1ccc(SC)c(=O)cc1[C@@H](NC(C)=O)CC2 [THIOCOLCHICOSIDE] . > 30 µM

Recall and state the measured AC50 for CC1(C)O[C@@H]2C[C@H]3[C@@H]4C[C@H](F)C5=CC(=O)C=C[C@]5(C)[C@H]4[C@@H](O)C[C@]3(C)[C@]2(C(=O)CO)O1 [FLUNISOLIDE] . > 30 µM

Recall and state the measured AC50 for `CO/N=C(\C(=O)N[C@@H]1C(=O)N2C(C(=O)[O-])=C(C[n+]3cccc4c3CCC4)CS[C@H]12)c1csc(N)n1` . > 30 µM

Recall and state the measured AC50 for `Nc1nc(O)c2ncn(COC(CO)CO)c2n1` . > 30 µM

Recall and state the measured AC50 for CC[N+]1(C)CCCC(OC(=O)C(O)(c2ccccc2)c2ccccc2)C1 (configuration not stated) [PIPENZOLATE] . > 30 µM

Recall and state the measured AC50 for `O=C(O)c1ccccc1Nc1cccc(C(F)(F)F)c1` . > 30 µM

Recall and state the measured AC50 for `CC#CCn1c(N2CCC[C@@H](N)C2)nc2c1c(=O)n(Cc1nc(C)c3ccccc3n1)c(=O)n2C` . > 10 µM

Recall and state the measured AC50 for `COc1ccc(/C=C/C(=O)Nc2ccccc2C(=O)O)cc1OC` . > 30 µM

Recall and state the measured AC50 for CCCNC(C)C(=O)Nc1ccccc1C (configuration not stated) . > 30 µM
